// values below are reported koff
# TGT: T1, SARS-CoV-2 Receptor Binding Domain (RBD) protein (SARS-CoV-2, UniProt P0DTC2 319-541)
# T1 construct: also called Sars-Cov-2 (COV2)
# EXPERIMENTAL_DETAILS: SPR (Carterra LSA); scFv captured by anti-V5, RBD as analyte
PROPERTY_NAME: koff (s⁻¹)

BINDER: COVID19_P14_F06 (scFv, V domains shown) VH: QVQLVQSGAEVKKPGSSVKVSCKASGGTFSSFAIIWVRQAPGQGLEWMALINPSSGTTSYAQKFQGRVTITADESTSTAYMELSSLRSEDTAVYYCARETVMGGMDVWGQGTLVTVSS VL: SSYVLTQPPSVSVAPGKTARITCGGNNIGSKSVHWYQQKPGQAPVLVIYYDSDRPSGIPERFSGSNSGNTATLTISRVEAGDEADYYCQVWDSSSHYVFGGGTKLTVLA
PROPERTY_NAME: koff
OBSERVED_VALUE: 0.0024
--
BINDER: COVID19_P01_H05 (scFv, V domains shown) VH: QVQLVQSGAEVKKPGSSVKVSCKASGGTFSNFALTWVRQAPGQGLEWMGLINPSGGSTSYAQRFQGRVTITADESTSTAYMELSSLRSEDTAVYYCARDSVMGGMDVWGQGTLVTVSS VL: SSYVLTQPPSVSVAPGKTARITCGGNNIGSKSVHWYQQKPGQAPVLVIYYDSDRPSGIPERFSGSNSGNTATLTISRVEAGDEADYYCQVWASSSDYVFGGGTKLTVLA
PROPERTY_NAME: koff
OBSERVED_VALUE: 0.000468
--
BINDER: COVID19_P13_C07 (scFv, V domains shown) VH: QVQLVQSGAEVKKPGSSVKVSCKASGGTFSRYDINWVRQAPGQGLEWMGIINPSGGSTTYAQKFQGRVTITADESTSTAYMELSSLRSEDTAVYYCAHDTVMGGMDVWGQGTLVTVSS VL: SSYVLTQPPSVSVAPGKTARITCGGNNIGSKSVHWYQQKPGQAPVLVIYYDSDRPSGIPERFSGSNSGNTATLTISRVEAGDEADYYCQVWDSSSYYVFGGGTKLTVLA
PROPERTY_NAME: koff
OBSERVED_VALUE: 0.0095
